# TESTED_TARGET: Autotaxin (Homo sapiens, UniProt Q13822)
# RUN_DESCRIPTION: Inhibition of recombinant ATX mediated hydrolysis of FS-3
MEASURED_METRIC: Ki (µM)

1. CCCCCCCCCCCCCCCCCC(=O)OC[C@H]1CCP(=O)(O)O1
2. CCCCCCCCCCCCCCCCCC(=O)OC[C@@H]1CCP(=O)(O)O1
# compare Ki for 1 vs 2 ; return the one with the smaller value Respond with the label that goes with your answer.
1
(1: 0.8 µM, 2: 1.6 µM)
